Entry source: patent US5075299A

system: Pseudomonas aeruginosa MB3833; assay: antibacterial activity, agar dilution method; assay type: cell-based; conditions: Pseudomonas aeruginosa MB3833; agar dilution method; read-out: Antibacterial Activity MIC
measuredAttribute: MIC (µg/mL)
Write down the numeric answer in µg/mL and omit the unit.

Task: For Cc1cc(=O)c(O)c(CO/N=C(\C(=O)NC2C(=O)N3C(C(=O)O)=C(CSc4cnns4)CSC23)c2csc(N)n2)n1O (stereo not shown) [Example 6] , what is its reported MIC?
Output: 0.39

Task: Now try CO/N=C(\C(=O)N[C@@H]1C(=O)N2C(C(=O)O)=C(COC(C)=O)CS[C@H]12)c1csc(N)n1 [CTX, reference compound] .
Output: 12.5
